# ASSAYED_SYSTEM: acetylcholine receptor
# METHOD_NOTES: SPR, AchR immobilised on chip, peptide at 10 uM
So basically every entry gets a class from its Binding affinity (RU), ranges being LOW: < 60 RU; MEDIUM: ≥ 60 RU and < 70 RU; HIGH: ≥ 70 RU

KGVLR [5mer-581] :: MEDIUM
KQVTR [5mer-263] :: HIGH

Query string: Category of KQITR [5mer-568] :
Result string: MEDIUM

Query string: Category of RQVRK [5mer-274] :
Result string: MEDIUM

Query string: Category of RLVSK [5mer-565] :
Result string: HIGH

Query string: Category of KLVRR [5mer-570] :
Result string: LOW

Query string: Category of KQYSR [5mer-594] :
Result string: LOW
